Listing: whole cell sodium current of selected molecules
Measurement target: amilorid-sensitive Sodium Ion Channel (ENaC) (Homo sapiens)
Construct: Macroscopic Sodium Ion Currents were derived from human lung epithelian cells A549; endogenous in cells; host or cells: A549 human lung epithelial cells
Sequence (P37088 whole entry): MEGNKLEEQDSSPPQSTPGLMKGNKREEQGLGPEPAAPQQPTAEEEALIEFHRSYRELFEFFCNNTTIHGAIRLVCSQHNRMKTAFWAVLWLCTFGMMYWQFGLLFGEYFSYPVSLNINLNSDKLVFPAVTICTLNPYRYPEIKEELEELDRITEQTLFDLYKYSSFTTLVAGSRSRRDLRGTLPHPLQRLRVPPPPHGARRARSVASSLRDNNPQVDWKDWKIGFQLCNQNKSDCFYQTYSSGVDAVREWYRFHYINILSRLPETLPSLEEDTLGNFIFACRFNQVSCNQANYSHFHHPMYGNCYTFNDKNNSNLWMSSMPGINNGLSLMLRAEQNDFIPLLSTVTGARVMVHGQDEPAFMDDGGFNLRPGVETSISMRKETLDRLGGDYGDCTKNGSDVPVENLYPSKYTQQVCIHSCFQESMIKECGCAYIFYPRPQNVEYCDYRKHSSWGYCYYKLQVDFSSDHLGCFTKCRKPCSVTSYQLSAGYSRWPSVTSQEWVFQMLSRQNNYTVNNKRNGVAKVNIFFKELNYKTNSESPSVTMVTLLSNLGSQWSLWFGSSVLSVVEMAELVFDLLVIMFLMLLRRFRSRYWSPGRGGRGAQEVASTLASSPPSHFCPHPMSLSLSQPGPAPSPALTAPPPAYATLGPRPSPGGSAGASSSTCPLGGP
Sequence (P51168 whole entry partner): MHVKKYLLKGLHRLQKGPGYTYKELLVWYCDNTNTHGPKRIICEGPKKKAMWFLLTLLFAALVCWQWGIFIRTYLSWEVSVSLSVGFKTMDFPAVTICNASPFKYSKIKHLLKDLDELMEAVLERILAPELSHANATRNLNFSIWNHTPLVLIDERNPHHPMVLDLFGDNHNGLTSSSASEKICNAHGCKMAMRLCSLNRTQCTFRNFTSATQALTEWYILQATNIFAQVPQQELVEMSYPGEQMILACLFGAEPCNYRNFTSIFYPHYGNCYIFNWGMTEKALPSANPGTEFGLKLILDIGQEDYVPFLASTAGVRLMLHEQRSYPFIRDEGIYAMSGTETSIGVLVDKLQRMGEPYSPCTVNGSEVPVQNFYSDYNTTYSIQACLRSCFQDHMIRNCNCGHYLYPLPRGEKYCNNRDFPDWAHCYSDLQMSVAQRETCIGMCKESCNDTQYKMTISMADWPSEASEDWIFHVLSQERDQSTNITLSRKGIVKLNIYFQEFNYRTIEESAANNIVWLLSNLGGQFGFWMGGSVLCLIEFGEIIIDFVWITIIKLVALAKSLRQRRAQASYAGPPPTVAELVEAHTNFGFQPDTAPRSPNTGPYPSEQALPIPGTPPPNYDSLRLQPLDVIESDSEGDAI
Sequence (P51170 whole entry partner): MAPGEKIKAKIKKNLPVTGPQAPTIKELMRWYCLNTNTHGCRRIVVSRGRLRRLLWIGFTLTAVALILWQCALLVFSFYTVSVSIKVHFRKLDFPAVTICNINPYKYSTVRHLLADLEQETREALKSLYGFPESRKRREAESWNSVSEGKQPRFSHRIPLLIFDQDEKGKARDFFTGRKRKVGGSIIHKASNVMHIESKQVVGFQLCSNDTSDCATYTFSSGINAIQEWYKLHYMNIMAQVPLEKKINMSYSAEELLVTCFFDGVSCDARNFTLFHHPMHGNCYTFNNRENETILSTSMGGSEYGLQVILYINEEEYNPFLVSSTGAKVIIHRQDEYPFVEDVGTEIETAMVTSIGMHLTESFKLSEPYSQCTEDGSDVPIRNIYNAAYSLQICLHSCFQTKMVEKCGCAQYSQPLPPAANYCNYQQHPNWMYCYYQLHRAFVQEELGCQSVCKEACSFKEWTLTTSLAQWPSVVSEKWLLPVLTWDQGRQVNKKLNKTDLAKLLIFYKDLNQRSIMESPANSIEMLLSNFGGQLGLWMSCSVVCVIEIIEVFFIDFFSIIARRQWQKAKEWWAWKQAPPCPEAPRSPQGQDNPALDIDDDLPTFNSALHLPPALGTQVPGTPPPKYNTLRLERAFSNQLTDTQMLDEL
Experimental details: Patch Clamp whole cell sodium current in deglycosylated (PNGase F) and untreated A549 cells
Type: cell-based
Stated conditions: pre-treatment with PNGase F, peptide 240 nM, Eh = −100 mV

| Structure notation | whole cell sodium current |
| --- | --- |
| C[C@@H]1NC(=O)CNC(=O)[C@H](CCC(=O)O)NC(=O)[C@@H]2CCCN2C(=O)[C@H]([C@@H](C)O)NC(=O)[C@H](CCC(=O)O)NC(=O)[C@H](CCCNC(=N)N)NC(=O)[C@H](CCC(N)=O)NC(=O)CNC(=O)[C@@H](N)CCCNC(=O)CNC(=O)[C@H](Cc2ccc(O)cc2)NC(=O)[C@H](Cc2c[nH]c3ccccc23)NC(=O)[C@@H]2CCCN2C(=O)[C@H](CCCCN)NC(=O)[C@H](C)NC(=O)[C@H](CCC(=O)O)NC1=O | 22.5 pA (n = 3) |

Field: next molecule
Problem: Please indicate whole cell sodium current recorded for C[C@@H]1NC(=O)CNC(=O)[C@H](CCC(=O)O)NC(=O)[C@@H]2CCCN2C(=O)[C@H]([C@@H](C)O)NC(=O)[C@H](CCC(=O)O)NC(=O)[C@H](CCCNC(=N)N)NC(=O)[C@H](CCC(N)=O)NC(=O)CNC(=O)[C@@H](N)CSSC[C@@H](C(=O)O)NC(=O)[C@H](Cc2ccc(O)cc2)NC(=O)[C@H](Cc2c[nH]c3ccccc23)NC(=O)[C@@H]2CCCN2C(=O)[C@H](CCCCN)NC(=O)[C@H](C)NC(=O)[C@H](CCC(=O)O)NC1=O
Solution: 19.6 pA (n = 3)
